- Test Protocol: BSK_4H_SRB: Viability Assessment in the BioMAP Diversity Plus: 4H Assay (AID 2283027);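 note: cells exposed to compound for 24 h before staining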
- Condition Info: primary human endothelial cells (HUVEC)
- Description: BSK_4H is a cell-based, multiplexed-readout assay that uses umbilical vein endothelium, a human vascular primary cell, with measurements taken at 24 hours after chemical dosing in a 96-well plate.BSK_4H_SRB is an assay component measured in the BSK_4H assay. It measures […] related to cell death using Sulforhodamine staining technology.Data from the assay component BSK_4H_SRB was analyzed into 1 assay endpoint. […]
Activity calls are given as the source filed them. Rule for the calls: active = hit-call score of the fitted dose curve at least 0.9, where 1 is the maximum; inactive = score below 0.9.
Outcomes: active, inactive

- Molecule: "Clc1cccc(C(Cl)(Cl)Cl)n1"
  Assigned Label: "inactive"
- Molecule: "Cn1c(-c2ccccc2)cc(-c2ccccc2)[n+]1C"
  Assigned Label: "active"
- Molecule: "N#Cc1c[nH]cc1-c1cccc2c1OC(F)(F)O2"
  Assigned Label: "active"
- Molecule: "CNC(=O)N(C)c1nnc(C(C)(C)C)s1"
  Assigned Label: "inactive"
- Molecule: "OC(c1ccc(Cl)cc1)(c1ccc(Cl)cc1)C(Cl)(Cl)Cl"
  Assigned Label: "active"
- Molecule: "CC(C)=CC1C(C(=O)OCc2coc(Cc3ccccc3)c2)C1(C)C (stereo unspecified)"
  Assigned Label: "inactive"

FYI, the data here is from PubChem BioAssay (EPA / NIEHS).
